Molecular target: NADPH oxidase 4 (Homo sapiens) (UniProt Q9NPH5)
Sequence (Q9NPH5 whole entry, looked up): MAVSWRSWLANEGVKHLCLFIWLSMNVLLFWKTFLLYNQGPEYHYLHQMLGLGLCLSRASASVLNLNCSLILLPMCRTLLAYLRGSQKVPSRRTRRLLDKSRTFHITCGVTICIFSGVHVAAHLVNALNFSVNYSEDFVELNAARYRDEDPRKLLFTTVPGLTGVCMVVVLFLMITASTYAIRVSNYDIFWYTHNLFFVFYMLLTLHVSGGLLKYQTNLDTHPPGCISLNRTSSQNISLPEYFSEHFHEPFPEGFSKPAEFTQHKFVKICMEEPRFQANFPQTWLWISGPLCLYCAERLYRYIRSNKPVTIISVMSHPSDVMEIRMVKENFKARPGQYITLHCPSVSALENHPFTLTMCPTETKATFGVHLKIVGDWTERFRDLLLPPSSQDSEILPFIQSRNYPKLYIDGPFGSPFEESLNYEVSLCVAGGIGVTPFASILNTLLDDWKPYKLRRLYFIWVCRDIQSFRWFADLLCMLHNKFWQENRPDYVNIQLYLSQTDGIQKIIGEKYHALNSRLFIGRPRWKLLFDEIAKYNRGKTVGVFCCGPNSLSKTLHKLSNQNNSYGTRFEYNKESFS
Assay: NOX4-dependent H2O2 signal modulators, primary screen, NOX inhibitor project, cell-based, HEK293-NOX4, tetracycline-induced, Amplex Red fluorescence (AID 1160)
Conditions: 45 min, higher = more signal, called active from +8 up or from −8 down
VALUE KIND: z-score

{"columns": ["MOLECULE", "REPORTED MEASUREMENT"],
 "data": [
  ["COc1ccc(COC(=O)NN=C2C[C@@H](O)[C@@H](O)[C@@H]3[C@@H]4C(=O)N([C@@H](C)c5ccccc5)C(=O)[C@@H]4CC[C@@H]23)cc1", 1.01],
  ["COc1ccc(O[C@H]2C=C[C@@H](c3ccccc3)O[C@@H]2COC(=O)CCC(C)=NOC[C@@H](O)COCc2ccco2)cc1", -0.876],
  ["COC(=O)[C@H](C)NC(=O)CCC1CC(OC(=O)NCc2cccc3ccccc23)CC2(CCCC(COC(=O)NCCC(C)C)O2)O1 (stereo partly drawn)", 0.703],
  ["COC(=O)[C@H](Cc1ccccc1)NC(=O)[C@@H](C)CO", 0.185],
  ["CON(C)C(=O)c1nnc2c(n1)[nH]c1ccccc12", 0.103],
  ["O=C(NN=C1C[C@@H](O)[C@@H](O)[C@@H]2[C@@H]3C(=O)N(c4ccc(F)cc4F)C(=O)[C@@H]3CC[C@H]12)OCc1ccccc1", 1.33],
  ["CC#CCOCCC=C1c2ccccc2[C@@H](OC)[C@@H]1C", 0.936],
  ["CC(CCN1CCCCc2nc(C)c(C)cc21)=NO[C@@H](C)c1cc(-c2c(C)cc(C)cc2C)no1", -0.125]
]}
